Target: AhR (Homo sapiens)
Construct: One of the resultant clones was named HEK-XRE 11.1, and used in the reporter gene assays; endogenous in cells; host or cells: HEK-XRE 11.1 (HEK cells stably carrying the AhR-responsive luciferase reporter X4-4.27 and phRL-CMV)
Test: Inhibition of AhR-mediated gene transcription (HEK-XRE 11.1 luciferase reporter, MeBIO induction)
Assay type: cell-based
Conditions: HEK-XRE 11.1 cells, MeBIO 0.1 nM, luminescence after 24 hours; Table 1
Description: HEK cells line was transfected with an AhR-responsive firefly luciferase reporter gene X4-4.27 and the stable transfectants generated were again transfected with phRL-CMV (a Renilla luciferase expression vector; Promega) along with pBAsi-hU6 Pur DNA (a plasmid carrying the puromycin-resistant gene; TaKaRa, Shiga, Japan), and maintained in the presence of both hygromycin B and puromycin (2 mg/mL). One of the resultant clones was named HEK-XRE 11.1, and used in the reporter gene assays. […]
pIC50: −log10 of the molar value.
Assign pIC50 to each entry below.

Quick check: pIC50 of "COc1ccc(NC(=O)c2sc3ncc(C)cc3c2N)cc1Cl" ?
> 7.30

Quick check: pIC50 of "Nc1c(C(=O)Nc2cccc(Br)c2)sc2ncc(C(F)(F)F)cc12" ?
> 7.30

Quick check: pIC50 of "Nc1c(C(=O)Nc2ccccn2)sc2ncc(C(F)(F)F)cc12" ?
> 7.30

Quick check: pIC50 of "Cc1cnc2sc(C(=O)Nc3ccsc3)c(N)c2c1" ?
> 7.30

Quick check: pIC50 of "Nc1c(C(=O)Nc2ccsc2)sc2ccc(C(F)(F)F)cc12" ?
> 7.30

Quick check: pIC50 of "Nc1c(C(=O)Nc2ccc(Cl)c(O)c2)sc2ncc(C(F)(F)F)cc12" ?
< 6.30

Quick check: pIC50 of "Nc1c(C(=O)Nc2cnc3ccccc3c2)sc2ncc(C(F)(F)F)cc12" ?
< 6.30

Quick check: pIC50 of "Nc1c(C(=O)Nc2ccsc2)sc2ncc(C(F)(F)F)cc12" ?
> 7.30

Quick check: pIC50 of "Nc1c(C(=O)Nc2ccc(F)cc2)sc2ccc(C(F)(F)F)cc12" ?
> 7.30

Quick check: pIC50 of "Nc1c(C(=O)Nc2ccc(F)cc2)sc2nc3c(cc12)CCC3" ?
> 7.30

Quick check: pIC50 of "Nc1c(C(=O)Nc2ccccc2)sc2ncc(F)cc12" ?
6.30 to 7.30

Quick check: pIC50 of "COc1ccc(NC(=O)c2sc3ncc(C(F)(F)F)cc3c2N)cc1-c1ccccc1" ?
6.30 to 7.30

----------
Molecular target: AhR (Homo sapiens, UniProt P35869)
Construct: One of the resultant clones was named HEK-XRE 11.1, and used in the reporter gene assays; endogenous in cells; host or cells: HEK-XRE 11.1 (HEK cells stably carrying the AhR-responsive luciferase reporter X4-4.27 and phRL-CMV)
Assay: Inhibition of AhR-mediated gene transcription (HEK-XRE 11.1 luciferase reporter, MeBIO induction)
Assay type: cell-based
Details: HEK-XRE 11.1 cells, MeBIO 0.1 nM, luminescence after 24 hours; Table 1
Assign IC50 to each entry below.

Quick check: IC50 of "Cc1nc2cc(NC(=O)c3sc4ncc(C(F)(F)F)cc4c3N)ccc2s1" ?
< 50 nM

Quick check: IC50 of "Cc1cc(NC(=O)c2sc3ncc(C(F)(F)F)cc3c2N)ccc1F" ?
50 to 500 nM

Quick check: IC50 of "COc1cccc(NC(=O)c2sc3cnc(C(F)(F)F)cc3c2N)c1" ?
< 50 nM

Quick check: IC50 of "Cc1ccc(NC(=O)c2sc3ncc(C(F)(F)F)cc3c2N)cc1" ?
< 50 nM

----------
Assign pIC50 to each entry below.
Molecular target: AhR (Homo sapiens, UniProt P35869)
Construct: One of the resultant clones was named HEK-XRE 11.1, and used in the reporter gene assays; endogenous in cells; host or cells: HEK-XRE 11.1 (HEK cells stably carrying the AhR-responsive luciferase reporter X4-4.27 and phRL-CMV)
Sequence (P35869 11-848): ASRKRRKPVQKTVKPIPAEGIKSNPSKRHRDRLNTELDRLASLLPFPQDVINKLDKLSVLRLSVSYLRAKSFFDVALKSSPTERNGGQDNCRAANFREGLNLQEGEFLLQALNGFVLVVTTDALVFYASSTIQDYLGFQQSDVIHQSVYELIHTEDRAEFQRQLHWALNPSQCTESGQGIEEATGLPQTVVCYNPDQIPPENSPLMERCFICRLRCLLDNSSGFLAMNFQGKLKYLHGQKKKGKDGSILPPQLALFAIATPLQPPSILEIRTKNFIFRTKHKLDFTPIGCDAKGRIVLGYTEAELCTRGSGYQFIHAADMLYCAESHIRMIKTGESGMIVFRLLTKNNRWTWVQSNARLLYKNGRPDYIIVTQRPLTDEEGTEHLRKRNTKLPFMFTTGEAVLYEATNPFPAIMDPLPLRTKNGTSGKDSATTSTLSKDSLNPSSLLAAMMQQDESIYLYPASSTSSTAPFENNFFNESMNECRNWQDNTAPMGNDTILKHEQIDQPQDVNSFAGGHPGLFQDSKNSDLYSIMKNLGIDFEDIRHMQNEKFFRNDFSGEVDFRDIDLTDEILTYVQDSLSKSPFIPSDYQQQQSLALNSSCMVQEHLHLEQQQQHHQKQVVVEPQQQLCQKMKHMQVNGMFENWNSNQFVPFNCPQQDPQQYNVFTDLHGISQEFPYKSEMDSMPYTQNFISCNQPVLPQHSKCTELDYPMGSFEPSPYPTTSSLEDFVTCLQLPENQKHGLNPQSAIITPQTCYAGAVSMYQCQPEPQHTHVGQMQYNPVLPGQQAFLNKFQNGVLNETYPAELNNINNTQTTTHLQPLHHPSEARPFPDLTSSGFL
Test: Inhibition of AhR-mediated gene transcription (HEK-XRE 11.1 luciferase reporter, MeBIO induction)
Type: cell-based
Details: HEK-XRE 11.1 cells, MeBIO 0.1 nM, luminescence after 24 hours; Table 1
Experimental: HEK cells line was transfected with an AhR-responsive firefly luciferase reporter gene X4-4.27 and the stable transfectants generated were again transfected with phRL-CMV (a Renilla luciferase expression vector; Promega) along with pBAsi-hU6 Pur DNA (a plasmid carrying the puromycin-resistant gene; TaKaRa, Shiga, Japan), and maintained in the presence of both hygromycin B and puromycin (2 mg/mL). One of the resultant clones was named HEK-XRE 11.1, and used in the reporter gene assays. […]
pIC50: −log10 of the molar value.

Quick check: pIC50 of "Nc1c(C(=O)Nc2ccc(Oc3ccccc3)cc2)sc2ncc(C(F)(F)F)cc12" ?
6.30 to 7.30

Quick check: pIC50 of "COc1ccc(NC(=O)c2sc3ncc(C)cc3c2N)cc1" ?
> 7.30

Quick check: pIC50 of "Nc1c(C(=O)Nc2ccc(-c3ccccc3)cc2)sc2ncc(C(F)(F)F)cc12" ?
6.30 to 7.30

Quick check: pIC50 of "Nc1c(C(=O)Nc2ccc(OC(F)(F)F)cc2)sc2ncc(C(F)(F)F)cc12" ?
> 7.30

Quick check: pIC50 of "Nc1c(C(=O)Nc2ccccn2)sc2nc3c(cc12)CCC3" ?
> 7.30

Quick check: pIC50 of "Nc1c(C(=O)Nc2cccc(-c3cccnc3)c2)sc2ncc(C(F)(F)F)cc12" ?
> 7.30

Quick check: pIC50 of "Cc1cnc2sc(C(=O)Nc3ccccc3)c(N)c2c1" ?
> 7.30

Quick check: pIC50 of "CCOC(=O)Cc1ccc(NC(=O)c2sc3ncc(C(F)(F)F)cc3c2N)cc1" ?
6.30 to 7.30

Quick check: pIC50 of "Nc1c(C(=O)Nc2ccccc2)sc2ncc(C3CC3)cc12" ?
6.30 to 7.30

Quick check: pIC50 of "Nc1c(C(=O)Nc2ccccc2)sc2ncc(C(F)(F)F)cc12" ?
< 6.30

Quick check: pIC50 of "Cc1ccc2sc(C(=O)Nc3ccc(Cl)cc3)c(N)c2n1" ?
6.30 to 7.30

Quick check: pIC50 of "Cc1cnc2sc(C(=O)Nc3ccc4c(c3)OCCO4)c(N)c2c1" ?
6.30 to 7.30

Quick check: pIC50 of "Nc1c(C(=O)Nc2ccccc2)sc2cnc(C(F)(F)F)cc12" ?
> 7.30

Quick check: pIC50 of "Cc1ccc2sc(C(=O)Nc3ccc(Br)cc3)c(N)c2c1" ?
6.30 to 7.30

Quick check: pIC50 of "Nc1c(C(=O)Nc2cccc3ncccc23)sc2ncc(C(F)(F)F)cc12" ?
6.30 to 7.30

Quick check: pIC50 of "Nc1c(C(=O)Nc2ccccc2)sc2nc3c(cc12)CCCC3" ?
6.30 to 7.30

Quick check: pIC50 of "Nc1c(C(=O)Nc2ccc3[nH]ncc3c2)sc2ncc(C(F)(F)F)cc12" ?
6.30 to 7.30

Quick check: pIC50 of "Nc1c(C(=O)Nc2ccc(Br)cc2)sc2ncc(C(F)(F)F)cc12" ?
> 7.30

Quick check: pIC50 of "Nc1c(C(=O)Nc2ccc(Cl)cc2)sc2cnc(C(F)(F)F)cc12" ?
6.30 to 7.30

Quick check: pIC50 of "Cc1cnc2sc(C(=O)Nc3ccncc3)c(N)c2c1" ?
6.30 to 7.30

Quick check: pIC50 of "CCOc1ccc(NC(=O)c2sc3ccc(C(F)(F)F)cc3c2N)cc1" ?
6.30 to 7.30

Quick check: pIC50 of "Cc1cccc(NC(=O)c2sc3ccc(C(F)(F)F)cc3c2N)c1" ?
6.30 to 7.30

These measurements were taken from patent US11696928B2.
